So I've got a bunch of molecules here, and I need their GI50 values.
# System: UACC-257
# Test: NCI tumour cell line growth inhibition, 48 h
Active and inactive are the calls of the source. Rule as the data show it: active = GI50 up to about 1.1 µM and inactive = higher.

Q) Look up and report measured GI50 for this entry: `CCOC(=O)c1sc2nc(SC)nc3c2c1NCN3C`
A) > 100 µM (inactive)

Q) Please list GI50 recorded for the molecule `C[C@@H](C(=O)O)c1ccc(-c2ccccc2)c(F)c1`
A) > 100 µM (inactive)

Q) Supply GI50 value. Item: `O=C1/C(=C/c2cccc(Oc3ccccc3)c2)N=C(c2ccccc2)N1c1nc2ccc(Sc3ccccc3)cc2[nH]1`
A) 29.4 µM (inactive)

Q) Please report GI50 for the following molecule: CC(CC(C)[C@H]1CCC2[C@H]3C(CC[C@@]21C)[C@@]1(C)CCC(O)C[C@H]1C[C@@H]3O)C(=O)O (stereo not given in full)
A) > 100 µM (inactive)

Q) Specify measured GI50 for `O=C(/C=C/c1ccccc1Cl)c1ccc(Cl)cc1Cl` .
A) 15.9 µM (inactive)

Q) Note down GI50 recorded for `O=C1c2c(n(Cc3ccccc3)c(=O)n2Cc2ccccc2)C(=O)N1Cc1ccccc1`
A) 67.6 µM (inactive)

Q) For the molecule `Cc1ccc(-c2n[nH]c(=O)n2N2C(=O)c3ccccc3C2=O)cc1` , report GI50.
A) > 100 µM (inactive)

Q) State its GI50: `O=C1C(c2ccccc2)=C(c2ccccc2)C1(Cl)Cl`
A) 2.71 µM (inactive)

Q) Answer with reported GI50 of `COc1cccc(C=C2N=C(C)N(n3c(-c4ccccc4)nc4ccccc4c3=O)C2=O)c1`
A) > 100 µM (inactive)

Q) Please give the documented GI50 of O=C1NC(Cc2ccc(O)cc2)C(=O)NC1Cc1ccc(O)cc1 (stereo not given)
A) > 100 µM (inactive)

Q) Specify GI50 for `COc1ccc2c(c1)CC[C@@H]1[C@@H]2CC[C@]2(C)C(=O)/C(=C/c3ccc(O)c(OC)c3)C[C@@H]12` and stop.
A) 57.8 µM (inactive)

Q) Tell me measured GI50 for `CCOC(=O)n1ccc2c(C(=O)OC)c(C(=O)OC)cc(/C(=C/C(=O)OC)C(=O)OC)c21` please.
A) > 100 µM (inactive)

Q) Using the record for `COc1ccccc1NC(=O)C1=C(C)NC(C)=C(C(=O)Nc2ccccc2OC)C1c1cccc2ccccc12` , state its measured GI50.
A) > 100 µM (inactive)

Q) Using the record for CC1SC2(CCCCC2)N(NC(=O)CSc2nc3ccc(Cl)cc3c(=O)n2-c2ccccc2)C1=O (stereo not given) , state its measured GI50.
A) 22.8 µM (inactive)

Q) Report measured GI50; entry is O=S(=O)(c1ccccc1)C1(C2(S(=O)(=O)c3ccccc3)CCN=N2)CCN=N1 (stereo not given)
A) > 100 µM (inactive)

Q) For the molecule `Nc1nc(Cl)c(/C=N\O)c(NCC2(CO)CC(=O)C2)n1` , report GI50.
A) 58.3 µM (inactive)

Q) Supply GI50 value. Item: C=CCN1C(=O)/C(=C/c2ccco2)N=C1SC1OC(COC(C)=O)C(OC(C)=O)C(OC(C)=O)C1OC(C)=O (stereo not given)
A) > 100 µM (inactive)

Q) Consider the molecule `CCOC(=O)Cc1cc(=O)oc2cc(O)ccc12` . State its measured GI50.
A) > 100 µM (inactive)

Q) Fill in GI50 for record `O=c1c2cccnc2[nH]c2ccc3cn[nH]c3c12`
A) > 10 µM (inactive)

Q) Identify measured GI50 associated with CCCCCCCCOCC(O)COC(=O)CCCCCCC (stereo not given)
A) 51.3 µM (inactive)

====

# Tested on: NCI-H226
# Test: NCI tumour cell line growth inhibition, 48 h
The source made the active and inactive calls. No stated cut-off is given here; in the data, active = GI50 up to about 1.1 µM and inactive = higher. Where a SMILES comes first, the peptide text is derived from it. [ ]: non-standard residue; d: D form. The star is where a group is joined. ξ: configuration not given here. X4 = COc1ccc(C(N*)c2ccc(OC)cc2)cc1; NMeF = CN[C@@H](Cc1ccccc1)C(=O)O; NMeD = CN[C@@H](CC(=O)O)C(=O)O; NMeV = CN[C@H](C(=O)O)C(C)C; ξNMeV = CNC(C(=O)O)C(C)C; Boc = CC(C)(C)OC(=O)*; ξNMeA = CNC(C)C(=O)O; ξV = CC(C)C(N)C(=O)O
Observed property: GI50

Q) Give reported GI50 value for COc1ccc(C(NC(=O)C[C@@H](C(=O)N(C)C(C)C(=O)O)N(C)C(=O)[C@@H]2CCCN2C(=O)[C@H](C(C)C)N(C)C(=O)C(C(C)C)N(C)C(=O)[C@H](Cc2ccccc2)N(C)C(=O)C(NC(=O)OC(C)(C)C)C(C)C)c2ccc(OC)cc2)cc1 (some centres undefined) (Boc-[ξV][NMeF][ξNMeV][NMeV]P[NMeD](X4)[ξNMeA]-OH)
A) 7.64 µM (inactive)

Q) Please report the measured GI50 for `CCOC(=O)Cc1cc(=O)oc2cc(O)ccc12`
A) > 100 µM (inactive)

Q) Find the measured GI50 of `CC12c3ccccc3C(OC=O)(c3ccccc31)C1(C)c3ccccc3C2(OC=O)c2ccccc21` and report it.
A) > 100 µM (inactive)

Q) Give a short answer stating reported GI50 for `CN(C)C(=O)OC(Cn1cncn1)(Cn1cncn1)c1ccc(Cl)cc1Cl` .
A) > 100 µM (inactive)

====

Hi there, I'd appreciate the recorded GI50 for every entry that follows.
# System: Hs-578T
# Test: NCI tumour cell line growth inhibition, 48 h
Activity calls are given as the source filed them. Rule as the data show it: active = GI50 up to about 1.1 µM and inactive = higher.

Q) Determine its reported GI50: `Cc1ccc2nc(-c3ccc(-c4nc5ccc(C)cc5o4)c(O)c3)oc2c1`
A) > 100 µM (inactive)

Q) Read off the recorded GI50 for `Cc1ccc(/C(Cl)=C/C=C(C#N)C#N)cc1`
A) 2.16 µM (inactive)

Q) Assign GI50 to the following record: COC(CN(C(=O)c1ccccc1)C1CCC2(SCCS2)c2[nH]c3ccccc3c21)OC (stereo unspecified)
A) 75.2 µM (inactive)

Q) Kindly indicate its recorded GI50. Item: `CCCCSC1=N/C(=C\c2ccc(N(C)C)cc2)C(=O)N1`
A) 25.2 µM (inactive)

Q) Give recorded GI50. `O=C1O[C@H](c2ccc3c(c2)OCO3)[C@H]2CO[C@@H](c3ccc4c(c3)OCO4)[C@@H]12`
A) > 100 µM (inactive)

Q) Give the measured GI50 for COC(=O)CNCC1OC2OC(C)(C)OC2C1N=[N+]=[N-] (stereo unspecified)
A) > 100 µM (inactive)

Q) Give recorded GI50. Nc1ncnc2c1ncn2C1C=C(CO)C(O)C1O (stereo unspecified)
A) 83.6 µM (inactive)

Q) For the molecule `Cc1cc(S(=O)(=O)Nc2nc(N)n[nH]2)c(S)cc1Cl` , give its reported GI50.
A) > 10 µM (inactive)

Q) Quote GI50 reported for `O=c1c2cccnc2[nH]c2ccc3cn[nH]c3c12` please.
A) 6.21 µM (inactive)

Q) Determine from records and report GI50 for `CC(=O)/C(=C\NC(=S)Nc1ccc(S(N)(=O)=O)cc1)C(=O)Nc1ccccc1C`
A) 61.8 µM (inactive)

Q) Answer with the recorded GI50 of `CCOC(=O)c1nc2ccc(C(F)(F)F)cc2nc1Oc1ccc(C(=O)OC)cc1` only.
A) 33.2 µM (inactive)

Q) Please give the documented GI50 of COC(=O)C1(O)C(c2ccccc2)=NC2(C)CCCC21 (stereo unspecified)
A) > 100 µM (inactive)

Q) For the molecule `COc1ccc(C(=O)N=C2N(c3ccccc3)C(=N/c3ccccc3)/C(=N\c3ccccc3)N2c2ccccc2)cc1` , give its reported GI50.
A) 7.78 µM (inactive)

Q) Find the measured GI50 of O=C1c2cc3c(cc2CC12Cc1ccc4c(c1C2=O)CCC4)CCC3 (stereo unspecified) and report it.
A) > 100 µM (inactive)

Q) Read the entry `O=C(NCCN(CCNC(=O)c1cccc(O)c1O)CCNC(=O)c1cccc(O)c1O)c1cccc(O)c1O` and write its reported GI50.
A) 29.7 µM (inactive)

Q) Supply measured GI50 of `Nc1ccc(-c2nc3ccccc3s2)cc1` in your reply.
A) 36.1 µM (inactive)

Q) Note GI50 for the molecule shown: `CCOC(=O)Cc1cc(=O)oc2cc(O)ccc12`
A) > 100 µM (inactive)

Q) For the molecule CCOP(=O)(OCC)C(C)(CC)N/C(=N\C1=NC(C(F)(F)F)(C(F)(F)F)N=C(C(F)(F)F)O1)NC(NC(C)=O)(C(F)(F)F)C(F)(F)F (stereo unspecified) , report GI50.
A) 31.8 µM (inactive)

Q) Identify measured GI50 corresponding to `CC(C)/C(Cl)=N/OC(=O)Nc1ccc(OC(F)(F)F)cc1`
A) 15.8 µM (inactive)

Q) Note down GI50 recorded for `O=C(Oc1ccc(C(c2c(O)c3ccccc3oc2=O)c2c(O)c3ccccc3oc2=O)cc1)c1ccc(C(=O)c2ccccc2)cc1`
A) 37.7 µM (inactive)

Q) Report measured GI50; entry is `O=C(O)CSC1=NCCN1`
A) > 100 µM (inactive)
